tested on: Staphylococcus aureus; test: Antibacterial activity against methicillin-resistant Staphylococcus aureus ATCC 43300 assessed as inhibition of bacterial growth incubated for 20 to 24 hrs by broth micro dilution method; type: functional; settings: time 20-24 hrs
experimental.readout: MIC

Would you please look over these solved cases?
Query: Query the reported MIC for Staphylococcus aureus; item: `CC1(C)S[C@@H]2[C@H](NC(=O)[C@H](N)c3ccccc3)C(=O)N2[C@H]1C(=O)O`
Result: > 64 µg/mL

Query: What MIC appears in the records for this compound with Staphylococcus aureus? `CO[C@H]1/C=C/O[C@@]2(C)Oc3c(C)c(O)c4c(O)c(c(/C=N/N5CCN(C)CC5)c(O)c4c3C2=O)NC(=O)/C(C)=C\C=C\[C@H](C)[C@H](O)[C@@H](C)[C@@H](O)[C@@H](C)[C@H](OC(C)=O)[C@@H]1C`
Result: < 0.125 µg/mL

Query: // lookup MIC | system=Staphylococcus aureus | key= `CN(C)c1ccc(/C=C/c2cc(N3CCOCC3)[n+](C)c3ccccc23)cc1.[I-]`
Result: > 64 µg/mL

Next, consider the following compound.
Query: Given the entry `CN(C)c1ccc(/C=C/c2cc(NCCCO)[n+](C)c3ccccc23)cc1.[I-]` , what MIC was observed with Staphylococcus aureus?
Result: > 64 µg/mL

====

Measured MIC values are reported for all entries that follow.
system: Escherichia coli; test: Antibacterial activity against Escherichia coli ATCC 25922 assessed as inhibition of bacterial growth incubated for 20 to 24 hrs by broth micro dilution method; format: functional; settings: time 20-24 hrs
Only the number, expressed in µg/mL, is required.

Query: Query for Escherichia coli: what MIC does the record show for `CN(C)c1ccc(/C=C/c2cc(N3CCCCC3)[n+](C)c3ccccc23)cc1.[I-]` ?
Result: 16

Query: Report MIC for `CCCNc1cc(/C=C/c2ccc(N(C)C)cc2)[n+](C)c2ccccc12.[I-]` tested on Escherichia coli.
Result: 32

Query: What is its MIC for Escherichia coli? Entry: `CC1CCN(c2cc(/C=C/c3ccc(N(C)C)cc3)[n+](C)c3ccccc23)CC1.[I-]`
Result: 8

Query: Tell me reported MIC for `CCCCNc1cc(/C=C/c2ccc(N(C)C)cc2)[n+](C)c2ccccc12.[I-]` , tested with Escherichia coli.
Result: 32

Origin of values: ChEMBL document CHEMBL5154863
